Would you kindly list PDE1A selectivity (versus PDE9A2) for each of these molecules?
tgt: PDE1A (Homo sapiens)
Construct: purchased Reaction Biology Corporation, Malvern, Pa
Sequence (P54750 whole entry): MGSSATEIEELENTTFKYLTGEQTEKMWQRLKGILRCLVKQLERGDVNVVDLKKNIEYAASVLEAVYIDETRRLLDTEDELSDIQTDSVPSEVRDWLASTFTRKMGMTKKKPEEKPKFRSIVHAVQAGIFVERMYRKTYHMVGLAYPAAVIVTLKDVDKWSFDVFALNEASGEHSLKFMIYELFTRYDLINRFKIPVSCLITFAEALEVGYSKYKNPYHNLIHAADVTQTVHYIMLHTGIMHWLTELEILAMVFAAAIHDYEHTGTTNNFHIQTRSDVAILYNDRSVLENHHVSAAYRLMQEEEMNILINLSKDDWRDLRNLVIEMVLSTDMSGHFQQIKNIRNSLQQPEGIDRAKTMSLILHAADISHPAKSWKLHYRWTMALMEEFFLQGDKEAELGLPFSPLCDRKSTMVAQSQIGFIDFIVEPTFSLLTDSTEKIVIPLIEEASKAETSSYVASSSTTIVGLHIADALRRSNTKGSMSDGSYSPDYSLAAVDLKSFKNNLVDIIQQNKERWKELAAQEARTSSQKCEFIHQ
assay_overview: Phosphodiesterase enzyme screening assay, PDE1A
Assay type: biochemical
experimental_context: Table 2; ratio of IC50 values; value greater than 1 indicates greater selectivity for PDE9A2
Answers are plain numbers.

Quick batch: PDE1A selectivity (versus PDE9A2) for everything below.
1. CC1CN(Cc2nccc(C3CC3)n2)CC1c1nn2c(C3CCOCC3)ncc2c(=O)[nH]1 (single isomer, unassigned; (+))
2. CC1CN(CCc2cncnc2)CC1c1nn2c(C3CCOCC3)ncc2c(=O)[nH]1 (single isomer, unassigned; (+))

1: 229; 2: 71

Batch request: PDE1A selectivity (versus PDE9A2) for each of the following molecules.
1. COc1cnc(CN2CC(C)C(c3nn4c(C5CCOCC5)ncc4c(=O)[nH]3)C2)nc1 (single isomer, unassigned; (+))
2. CC1CN(Cc2ncc(Cl)cn2)CC1c1nn2c(C3CCOCC3)ncc2c(=O)[nH]1 (single isomer, unassigned; (+))
3. CC1CN(Cc2ncc(C3CC3)cn2)CC1c1nn2c(C3CCOCC3)ncc2c(=O)[nH]1 (single isomer, unassigned; (+))

1. 26
2. 95
3. 151

Field: PDE1A selectivity (versus PDE9A2). Fill in for each record below.
1. CC1CN(Cc2nccc(C(F)(F)F)n2)CC1c1nn2c(C3CCOCC3)ncc2c(=O)[nH]1 (single isomer, unassigned; (+))
2. Cc1ccnc(CN2CC(C)C(c3nn4c(C5CCOCC5)ncc4c(=O)[nH]3)C2)n1 (single isomer, unassigned; (+))
3. Cc1cc(C)nc(CN2CC(C)C(c3nn4c(C5CCOCC5)ncc4c(=O)[nH]3)C2)n1 (single isomer, unassigned; (+))
4. CC1CN(Cc2ncc(N3CCCC3)cn2)CC1c1nn2c(C3CCOCC3)ncc2c(=O)[nH]1 (single isomer, unassigned; (+))

[585, 182, 947, 105]

// each molecule listed below needs its PDE1A selectivity (versus PDE9A2)
1. CC1CN(Cc2ncc(F)cn2)CC1c1nn2c(C3CCOCC3)ncc2c(=O)[nH]1 (single isomer, unassigned; (+))
2. CC1CN(Cc2nccc(N(C)C)n2)CC1c1nn2c(C3CCOCC3)ncc2c(=O)[nH]1 (single isomer, unassigned; (+))
3. Cc1cnc(CN2CC(C)C(c3nn4c(C5CCOCC5)ncc4c(=O)[nH]3)C2)nc1 (single isomer, unassigned; (+))
4. CC1CN(Cc2ncc(C#N)cn2)CC1c1nn2c(C3CCOCC3)ncc2c(=O)[nH]1 (single isomer, unassigned; (+))

[133, 117, 42, 22]
